# methodSummary: photoluminescence quantum yield (fraction); solvent given as SMILES
# runConditions: in CN(C)C=O
Reported photoluminescence quantum yield values for a set of compounds

Some entries whose results are on file:
CCCCCCCCN1c2ccccc2Sc2cc(/C=C/c3ccc(N(c4ccc(/C=C/c5ccc6c(c5)Sc5ccccc5N6CCCCCCCC)cc4)c4ccc(/C=C/c5ccc(/C=C/c6ccc(N(c7ccc(/C=C/c8ccc(N(c9ccccc9)c9ccccc9)cc8)cc7)c7ccc(/C=C/c8ccc(N(c9ccccc9)c9ccccc9)cc8)cc7)cc6)c6nsnc56)cc4)cc3)ccc21; 0.001
COc1cc(OC)cc(-c2ccc(-c3ccc(C#N)s3)s2)c1; 0.12
CCn1c2ccccc2c2cc(-c3cc(-c4ccc5c(c4)c4ccccc4n5CC)nc(OC)n3)ccc21; 0.69
COC(=O)C(Cc1ccc2oc(-c3ccc(N(c4ccccc4)c4ccccc4)cc3)nc2c1)NC(=O)OC(C)(C)C (stereo not given); 0.72

Here is the next item to consider.
Value of measured photoluminescence quantum yield for the entry `COc1cc(/C=C/c2nc3ccccc3s2)c(OC)cc1/C=C/c1ccncc1` : 0.67

====

# methodSummary: photoluminescence quantum yield (fraction); solvent given as SMILES
# runConditions: in CCO
Reported photoluminescence quantum yield values for a set of compounds
Simply state the number, no unit and no words.

Some entries whose results are on file:
C(=C\c1cnccn1)/c1ccc2nccnc2c1; 0.09
CN(C)c1ccc2nc(/C=C/c3cc4c5c(c3)CCCN5CCC4)c(=O)oc2c1; 0.008
O=C(O)COc1cccc(OCC(=O)O)c1-c1c2ccc(=[N+]3CCCCC3)cc-2oc2cc(N3CCCCC3)ccc12; 0.49

Value of measured photoluminescence quantum yield for the entry `CCOC(=O)c1cc(C(=O)OCC)c2cc(C)ccc2n1` : 0.022

Value of measured photoluminescence quantum yield for the entry `CCCN1C(=O)C(=CC=CC=C2Oc3ccccc3N2CCCS(=O)(=O)[O-])C(=O)N(CCC)C1=S` : 0.25

Value of measured photoluminescence quantum yield for the entry `CCC1=C(C)C2=C(C)c3cc(I)c(I)n3[B-](F)(F)[N+]2=C1C` : 0.16

Value of measured photoluminescence quantum yield for the entry `Cc1ccc(C#Cc2ccc3ccc4cccc5ccc2c3c45)cc1` : 0.3

Value of measured photoluminescence quantum yield for the entry `CC[N+](CC)=c1ccc2c(C(F)(F)F)c3c(oc-2c1)-c1ccc(N(C)C)cc1CC3` : 0.163

Value of measured photoluminescence quantum yield for the entry `O=C1c2cccc3c(NCc4ccccn4)c4ccccc4c(c23)C(=O)N1Cc1ccccn1` : 0.07

Value of measured photoluminescence quantum yield for the entry `CCN(CC)c1ccc2cc(C#N)/c(=N\C(=O)c3ccco3)oc2c1` : 0.033

====

# methodSummary: photoluminescence quantum yield (fraction); solvent given as SMILES
# runConditions: in C1COCCO1
Reported photoluminescence quantum yield values for a set of molecules
Simply state the number, no unit and no words.

Some entries whose results are on file:
COc1cc(OC)cc(-c2ccc(-c3ccc(C#N)s3)s2)c1; 0.09
NNC(=O)NNN1C(=O)c2cc(S(=O)(=O)[O-])cc3c(N)c(S(=O)(=O)[O-])cc(c23)C1=O; 0.06

Here is the next item to consider.
Value of measured photoluminescence quantum yield for the entry `COC(=O)c1ccc(/C=C2\N=C(c3ccc(OC)c(OC)c3)NC2=O)cc1` : 0.295
